Data provenance: ChEMBL document CHEMBL1124366

Entries and their MIC values follow.
Test system: Streptococcus pneumoniae
PROCEDURE SUMMARY: In vitro minimum inhibitory concentration against Streptococcus pneumoniae UC41
Format: functional
PROPERTY LABEL: MIC (µg/mL)

* CCOC(=O)CNC(=O)[C@H]1NC(=O)[C@H]2NC(=O)[C@H](NC(=O)[C@@H]3NC(=O)[C@H]4NC(=O)[C@@H](Cc5ccc(c(Cl)c5)Oc5cc3cc(c5O)Oc3ccc(cc3Cl)[C@H]2O[C@@H]2O[C@@H](CO)[C@@H](O)[C@H](O)[C@@H]2NC(C)=O)NC(=O)[C@H](N)c2ccc(O)c(c2)Oc2cc(O)cc4c2)c2ccc(O)c(c2)-c2c(O)cc(O)cc21 | 1
* CC(=O)N[C@@H]1[C@H](O[C@@H]2c3ccc(c(Cl)c3)Oc3cc4cc(c3O)Oc3ccc(cc3Cl)C[C@H]3NC(=O)[C@H](N)c5ccc(O)c(c5)Oc5cc(O)cc(c5)[C@H](NC3=O)C(=O)N[C@H]4C(=O)N[C@H]3C(=O)N[C@@H]2C(=O)N[C@H](C(=O)O)c2cc(O)cc(O[C@H]4O[C@H](CO)[C@@H](O)[C@@H](O)[C@@H]4O)c2-c2cc3ccc2O)O[C@@H](CO)[C@@H](O)[C@@H]1O | 0.5
* CC(=O)N[C@@H]1[C@H](O[C@@H]2c3ccc(c(Cl)c3)Oc3cc4cc(c3O[C@@H]3O[C@@H](CO)[C@@H](O)[C@H](O)[C@@H]3NC(=O)CCCCCCC(C)C)Oc3ccc(cc3Cl)C[C@H]3NC(=O)[C@H](N)c5ccc(O)c(c5)Oc5cc(O)cc(c5)[C@H](NC3=O)C(=O)N[C@H]4C(=O)N[C@H]3C(=O)N[C@@H]2C(=O)N[C@H](C(=O)NCCCCCCCN(C)C)c2cc(O)cc(O[C@H]4O[C@H](CO)[C@@H](O)[C@@H](O)[C@@H]4O)c2-c2cc3ccc2O)O[C@@H](CO)[C@@H](O)[C@@H]1O | 0.12
* COC(=O)CNC(=O)[C@H]1NC(=O)[C@H]2NC(=O)[C@H](NC(=O)[C@@H]3NC(=O)[C@H]4NC(=O)[C@@H](Cc5ccc(c(Cl)c5)Oc5cc3cc(c5O)Oc3ccc(cc3Cl)[C@H]2O[C@@H]2O[C@@H](CO)[C@@H](O)[C@H](O)[C@@H]2NC(C)=O)NC(=O)[C@H](N)c2ccc(O)c(c2)Oc2cc(O)cc4c2)c2ccc(O)c(c2)-c2c(O)cc(O)cc21 | 2

###

Tested on: Enterococcus faecalis
PROCEDURE SUMMARY: In vitro minimum inhibitory concentration against Streptococcus faecalis ATCC 7080
Assay type: functional
Entries and their MIC values follow.
PROPERTY LABEL: MIC (µg/mL)

- CCNCCNC(=O)[C@H]1NC(=O)[C@H]2NC(=O)[C@H](NC(=O)[C@@H]3NC(=O)[C@H]4NC(=O)[C@@H](Cc5ccc(c(Cl)c5)Oc5cc3cc(c5O)Oc3ccc(cc3Cl)[C@H]2O)NC(=O)[C@H](N)c2ccc(O)c(c2)Oc2cc(O)cc4c2)c2ccc(O)c(c2)-c2c(O)cc(O)cc21: 0.12
- N[C@H]1C(=O)N[C@@H]2Cc3ccc(c(Cl)c3)Oc3cc4cc(c3O)Oc3ccc(cc3Cl)[C@@H](O)[C@@H]3NC(=O)[C@H](NC(=O)[C@@H]4NC(=O)[C@@H](NC2=O)c2cc(O)cc(c2)Oc2cc1ccc2O)c1ccc(O)c(c1)-c1c(O)cc(O)cc1[C@@H](C(=O)NCCN1CCCC1)NC3=O: 0.12
- CNCCN(C)C(=O)[C@H]1NC(=O)[C@H]2NC(=O)[C@H](NC(=O)[C@@H]3NC(=O)[C@H]4NC(=O)[C@@H](Cc5ccc(c(Cl)c5)Oc5cc3cc(c5O)Oc3ccc(cc3Cl)[C@H]2O)NC(=O)[C@H](N)c2ccc(O)c(c2)Oc2cc(O)cc4c2)c2ccc(O)c(c2)-c2c(O)cc(O)cc21: 0.12
- CC(=O)N[C@@H]1[C@H](O[C@@H]2c3ccc(c(Cl)c3)Oc3cc4cc(c3O[C@@H]3O[C@@H](CO)[C@@H](O)[C@H](O)[C@@H]3NC(=O)CCCCCCC(C)C)Oc3ccc(cc3Cl)C[C@H]3NC(=O)[C@H](N)c5ccc(O)c(c5)Oc5cc(O)cc(c5)[C@H](NC3=O)C(=O)N[C@H]4C(=O)N[C@H]3C(=O)N[C@@H]2C(=O)N[C@H](C(=O)NC2CCN(Cc4ccccc4)CC2)c2cc(O)cc(O[C@H]4O[C@H](CO)[C@@H](O)[C@@H](O)[C@@H]4O)c2-c2cc3ccc2O)O[C@@H](CO)[C@@H](O)[C@@H]1O: 0.12
- N[C@H]1C(=O)N[C@@H]2Cc3ccc(c(Cl)c3)Oc3cc4cc(c3O)Oc3ccc(cc3Cl)[C@@H](O)[C@@H]3NC(=O)[C@H](NC(=O)[C@@H]4NC(=O)[C@@H](NC2=O)c2cc(O)cc(c2)Oc2cc1ccc2O)c1ccc(O)c(c1)-c1c(O)cc(O)cc1[C@@H](C(=O)NC(CCC(=O)O)C(=O)O)NC3=O (stereo not given in full): 0.5
